These entries and their values trace back to ChEMBL document CHEMBL5303300.

# Test system: HEK-293T
# PROTOCOL DESCRIPTION: Multiplex assay against HEK293T
# Type: toxicity, cell-based
# CONDITION INFO: human, 12 h, 10 µM, compound concentration 10 uM, number of replicates 2
Below, each entry is listed alongside its reported Population Tubulin-Different-Phenotype (%).
PROPERTY MEASURED: Population Tubulin-Different-Phenotype (%)

COMPOUND	MEASUREMENT
O=C1Nc2ccc(C(=O)c3ccco3)cc2C1=Cc1cc(Cl)c(O)c(Cl)c1 [GW406108X]	67
CNS(=O)(=O)c1ccc(N(C)C)c(Nc2ncnc3cc(OC)c(OC)cc23)c1	59
CC(C)N1CCN(Cc2cnc(-c3cc(-c4cccc5[nH]ccc45)cc4[nH]ncc34)o2)CC1	98
CSc1cc2c(cc1C(F)(F)F)N(C(=O)Nc1cccnc1)CC2	39

----------
# Test system: HEK-293T
# PROTOCOL DESCRIPTION: Multiplex assay against HEK293T
# Assay type: toxicity, cell-based
# CONDITION INFO: human, 24 h, 1 µM, compound concentration 1 uM, number of replicates 2
*1 amine or outer side, *2 acyl side, *3 side chain or, on linkers, in order; H or OH if unused. Where a SMILES comes first, the peptide text is derived from it. Bridges are numbered along the chain shown (N, C = ends). Roman numbers before positions name the chains, in order. [ ]: non-standard residue; d: D form. Hexamethylenediamine = C(CCCN[*:2])CCN[*:1]; Dip = N[C@H](C(=O)O)C(c1ccccc1)c1ccccc1; Chg = N[C@H](C(=O)O)C1CCCCC1; NMeA = CN[C@@H](C)C(=O)O
PROPERTY MEASURED: Population Normal (%)

COMPOUND	TARGET ENTITY	MEASUREMENT
O=C1Nc2ccc(C(=O)c3ccco3)cc2C1=Cc1cc(Cl)c(O)c(Cl)c1 [GW406108X]	HEK-293T	90
CC(C)c1c(NC(=O)Nc2ccc(Cl)cc2)c(=O)n(-c2ccccc2)n1C	HEK-293T	91
CC1=C(C)C(=O)C(C(CCCCCC(=O)O)c2ccccc2)=C(C)C1=O (configuration not stated)	HEK-293T	90
CN[C@@H](C)C(=O)N[C@H](C(=O)N1CCC[C@H]1C(=O)N[C@H](C(=O)NCCCCCCNC(=O)[C@@H](NC(=O)[C@@H]1CCCN1C(=O)[C@@H](NC(=O)[C@H](C)NC)C1CCCCC1)C(c1ccccc1)c1ccccc1)C(c1ccccc1)c1ccccc1)C1CCCCC1 (I: H-[NMeA][Chg]P[Dip] / II: H-[NMeA][Chg]P[Dip]; linker I:C-II:C via Hexamethylenediamine)	HEK-293T	93
O=C1NC(=NCc2cccs2)SC1=Cc1ccc2ncccc2c1	HEK-293T	91
CN(C)CCCNc1ccnc(Nc2cccc(Cl)c2)n1	HEK-293T	93
Cc1cn(CCN2CCN(c3ccccc3-c3cc(C#N)cc(C(=O)NCCCN4CCCC4)c3)CC2)c2ccccc12	HEK-293T	91

----------
# Test system: HEK-293T
# PROTOCOL DESCRIPTION: Multiplex assay against HEK293T
# Format: toxicity, cell-based
# CONDITION INFO: human, 48 h, 10 µM, compound concentration 10 uM, number of replicates 2
Below, each entry is listed alongside its reported Population Mitochondria Different-Phenotype (%).
PROPERTY MEASURED: Population Mitochondria Different-Phenotype (%)

COMPOUND	ENDPOINT UNIT	MEASUREMENT
CC(C)NC(=O)[C@H]1CCC[C@H]1Nc1nc(Nc2ccc(C(=O)N(C)C3CCN(C)CC3)cc2)ncc1Cl	%	5
O=C1NC(=O)C(c2ccccc2[N+](=O)[O-])=C1Nc1ccc(O)c(Cl)c1	%	0
NC(=O)c1ccc(-c2nc(-c3ccc4c(c3)OCCO4)c(-c3ccccn3)[nH]2)cc1	%	1
CC1=C(C)C(=O)C(C(CCCCCC(=O)O)c2ccccc2)=C(C)C1=O (stereo not given)	%	0
COc1ccncc1C(=O)NC(=O)Nc1ccc(-c2ccccc2)c(C(F)(F)F)c1	%	1
